# tested on: recombinant human PAI-1 (Homo sapiens, UniProt P05121)
# Construct: purchased Molecular Innovations, Inc
# Sequence (P05121 24-402): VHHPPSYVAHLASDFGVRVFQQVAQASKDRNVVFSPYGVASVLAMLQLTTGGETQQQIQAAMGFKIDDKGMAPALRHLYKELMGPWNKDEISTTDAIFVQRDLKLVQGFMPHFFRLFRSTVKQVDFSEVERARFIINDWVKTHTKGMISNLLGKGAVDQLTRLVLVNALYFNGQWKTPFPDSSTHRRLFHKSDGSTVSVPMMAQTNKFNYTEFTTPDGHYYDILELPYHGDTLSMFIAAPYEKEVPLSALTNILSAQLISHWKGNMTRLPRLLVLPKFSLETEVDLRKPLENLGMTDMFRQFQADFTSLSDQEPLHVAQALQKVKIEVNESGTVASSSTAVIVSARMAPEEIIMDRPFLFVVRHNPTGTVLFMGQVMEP
# experiment summary: Test Example 2: human PAI-1 inhibitory activity (tPA fluorogenic substrate, pH 7.4 HEPES buffer)
# Assay type: biochemical
# protocol conditions: human PAI-1; compound concentration 3 μM
Inhibition Rate of PAI-1 Activity (%) values, listed per item
Field: numeric (%). Do not append units.

| chemical smiles | tested on | measured |
| --- | --- | --- |
| CCCCCOc1cc(-c2ccc(OC(F)(F)F)cc2)ccc1CN(C(=O)C(=O)O)c1ccc(C(C)(C)C)cc1 | recombinant human PAI-1 (Homo sapiens, UniProt P05121) | 89 |

Item: `CN(C(=O)c1ccc(OC(F)(F)F)cc1)c1ccc(OCc2ccc(C(C)(C)C)cc2)c(CCC(=O)O)c1` | Inhibition Rate of PAI-1 Activity (%): 54

Item: `O=C(O)/C=C/c1ccc(-c2ccc(OC(F)(F)F)cc2)cc1OCCCOCc1ccccc1` | Inhibition Rate of PAI-1 Activity (%): 98

Item: `CC(C)(C)c1cccc(Oc2ccc(-c3ccc(OC(F)(F)F)cc3)cc2/C=C/C(=O)O)c1` | Inhibition Rate of PAI-1 Activity (%): 98
